Task for the reader: assign each of the following sequences its reported self-splicing fitness (ln).
- assay details: self-splicing fitness, log relative to wild type (ln ratio); higher = more splicing; Tetrahymena group I intron in knt gene, E. coli kanamycin selection, DiMSum; sequences stand for … in CUCUCU…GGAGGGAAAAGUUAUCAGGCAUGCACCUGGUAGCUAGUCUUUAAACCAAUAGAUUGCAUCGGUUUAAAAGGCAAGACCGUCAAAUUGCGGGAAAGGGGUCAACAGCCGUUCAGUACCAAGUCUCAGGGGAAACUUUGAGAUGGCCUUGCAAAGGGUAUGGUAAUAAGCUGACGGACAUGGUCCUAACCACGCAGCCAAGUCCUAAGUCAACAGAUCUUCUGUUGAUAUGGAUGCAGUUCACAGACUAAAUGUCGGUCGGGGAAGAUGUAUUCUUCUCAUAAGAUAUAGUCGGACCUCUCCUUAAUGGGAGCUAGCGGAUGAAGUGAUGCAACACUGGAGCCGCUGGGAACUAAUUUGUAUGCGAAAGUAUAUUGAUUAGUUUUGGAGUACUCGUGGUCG;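 also: selection with 25 µg/mL kanamycin versus none on LB agar overnight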
- particulars: 30 °C
Answers are plain numbers.

As a guide, the following entries are already answered.
[[record]]
residue_codes = "AGUAAGCAAUAUUACGCAAU"
recorded_result = -2.52

[[record]]
residue_codes = "AAAGAGCAAUAUUACGGUUU"
recorded_result = -2.16

[[record]]
residue_codes = "GGUAAGCAAUAUUACGGCGU"
recorded_result = 0.139


Give self-splicing fitness (ln) for each listed item.
1. CCGUAGCAAUAUUACGUCAG
2. CCCGAGCAAUAUUACGAUCG
3. AUACAGCAAUAUUACGCAUU
4. UCCUAGCAAUAUUACGUAAC

**Result**
-1.26
-3.58
-1.85
-3.53

Give self-splicing fitness (ln) for each listed item.
1. UUUGAGCAAUAUUACGCAGC
2. UGGCAGCAAUAUUACGUCCU
3. GUGAAGCAAUAUUACGCAGU

**Result**
1. -3.5
2. -0.363
3. -2.6

Give self-splicing fitness (ln) for each listed item.
1. UCGUAGCAAUAUUACGUGUU
2. AGUAAGCAAUAUUACGCUAA
3. GCGUAGCAAUAUUACGGUUU
4. GUUAAGCAAUAUUACGCACA
5. AUUAAGCAAUAUUACGGGAU
6. AGCAAGCAAUAUUACGUUGC

**Result**
-3.06
-2.36
-1.03
-0.425
-2.07
-3.69

Give self-splicing fitness (ln) for each listed item.
1. GUUUAGCAAUAUUACGAGCG
2. CACCAGCAAUAUUACGGAAU
3. CGAUAGCAAUAUUACGCACG
4. AAAAAGCAAUAUUACGAAGU
5. CAAUAGCAAUAUUACGGUUU
6. GCAUAGCAAUAUUACGUAUU
7. CAAAAGCAAUAUUACGCGUC
8. GGCCAGCAAUAUUACGGUUG

**Result**
-1.6
-2.97
-2.6
-2.08
-2.88
-3.09
-3.72
-0.224

###

- assay details: self-splicing fitness, log relative to wild type (ln ratio); higher = more splicing; Tetrahymena group I intron in knt gene, E. coli kanamycin selection, DiMSum; sequences stand for … in CUCUCU…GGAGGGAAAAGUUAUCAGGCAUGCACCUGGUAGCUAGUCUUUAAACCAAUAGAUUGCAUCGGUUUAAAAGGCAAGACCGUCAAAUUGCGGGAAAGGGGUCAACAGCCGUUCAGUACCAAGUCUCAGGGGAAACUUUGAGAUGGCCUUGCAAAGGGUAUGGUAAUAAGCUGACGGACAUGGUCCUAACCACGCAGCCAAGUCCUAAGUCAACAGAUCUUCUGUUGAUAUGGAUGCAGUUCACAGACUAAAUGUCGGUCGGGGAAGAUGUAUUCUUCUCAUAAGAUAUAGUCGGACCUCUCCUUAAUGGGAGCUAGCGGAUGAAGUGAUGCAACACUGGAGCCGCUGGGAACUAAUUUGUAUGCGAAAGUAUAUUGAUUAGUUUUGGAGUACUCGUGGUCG
- particulars: 37 °C
Task for the reader: assign each of the following sequences its reported self-splicing fitness (ln).
Numbers only.

Give self-splicing fitness (ln) for each listed item.
1. GGGCAGCAAUAUUACGAAGA
2. CAGAAGCAAUAUUACGUGAA

**Result**
1. -0.958
2. -1.16

###

- assay details: self-splicing fitness, log relative to wild type (ln ratio); higher = more splicing; Tetrahymena group I intron in knt gene, E. coli kanamycin selection, DiMSum; sequences stand for … in CUCUCU…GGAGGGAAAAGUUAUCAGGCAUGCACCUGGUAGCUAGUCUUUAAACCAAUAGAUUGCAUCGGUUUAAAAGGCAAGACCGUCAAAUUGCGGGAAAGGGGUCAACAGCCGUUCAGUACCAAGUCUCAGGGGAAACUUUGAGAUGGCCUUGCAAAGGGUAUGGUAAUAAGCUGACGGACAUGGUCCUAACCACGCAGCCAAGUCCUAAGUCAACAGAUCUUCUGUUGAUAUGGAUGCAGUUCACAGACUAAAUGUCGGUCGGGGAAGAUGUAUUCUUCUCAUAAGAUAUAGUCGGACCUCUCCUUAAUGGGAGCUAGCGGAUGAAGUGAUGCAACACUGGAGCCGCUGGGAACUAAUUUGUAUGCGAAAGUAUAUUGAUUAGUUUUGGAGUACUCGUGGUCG
- particulars: 37 °C
Task for the reader: assign each of the following sequences its reported self-splicing fitness (ln).
Numbers only.

As a guide, the following entries are already answered.
[[record]]
residue_codes = "UUGUAGCAAUAUUACGGGAC"
recorded_result = -2.7

[[record]]
residue_codes = "CGCAAGCAAUAUUACGAGAU"
recorded_result = -1.59

[[record]]
residue_codes = "UCUGAGCAAUAUUACGUCGU"
recorded_result = -1.91

[[record]]
residue_codes = "UCUGAGCAAUAUUACGUAAG"
recorded_result = -0.863

[[record]]
residue_codes = "CCGCAGCAAUAUUACGUAAG"
recorded_result = -0.112

[[record]]
residue_codes = "ACCAAGCAAUAUUACGCUCG"
recorded_result = -1.32

[[record]]
residue_codes = "GUUAAGCAAUAUUACGGCAU"
recorded_result = 0.0583

[[record]]
residue_codes = "AUUGAGCAAUAUUACGGCGG"
recorded_result = -1.05


Give self-splicing fitness (ln) for each listed item.
1. UACAAGCAAUAUUACGCACG
2. UAGGAGCAAUAUUACGGUAA
3. GCAAAGCAAUAUUACGCGAA
4. ACUCAGCAAUAUUACGGCAG
5. UUGAAGCAAUAUUACGCUCC
6. AAGUAGCAAUAUUACGCAUA

**Result**
1. 0.0257
2. -2.26
3. -0.599
4. -0.501
5. -3.02
6. -0.759

Give self-splicing fitness (ln) for each listed item.
1. AUUCAGCAAUAUUACGGAUC
2. AGACAGCAAUAUUACGGACA

**Result**
1. -2.53
2. -0.425

###

- assay details: self-splicing fitness, log relative to wild type (ln ratio); higher = more splicing; Tetrahymena group I intron in knt gene, E. coli kanamycin selection, DiMSum; sequences stand for … in CUCUCU…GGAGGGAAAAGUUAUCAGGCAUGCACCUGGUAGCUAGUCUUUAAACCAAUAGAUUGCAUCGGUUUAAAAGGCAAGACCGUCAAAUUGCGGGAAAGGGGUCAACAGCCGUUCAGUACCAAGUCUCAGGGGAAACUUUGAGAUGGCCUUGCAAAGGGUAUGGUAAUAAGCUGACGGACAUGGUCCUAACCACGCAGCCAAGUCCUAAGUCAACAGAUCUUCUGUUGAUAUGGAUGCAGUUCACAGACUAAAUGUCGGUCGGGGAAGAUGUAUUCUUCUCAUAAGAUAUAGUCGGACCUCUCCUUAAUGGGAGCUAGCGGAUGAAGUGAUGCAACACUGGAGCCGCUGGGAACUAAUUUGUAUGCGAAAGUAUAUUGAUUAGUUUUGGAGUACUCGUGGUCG
- particulars: 37 °C
Entry flag: Yes if self-splicing fitness (ln) reaches -2; No if it does not.

[[record]]
residue_codes = "UAUUAGCAAUAUUACGUACG"
answer_label = "Yes"

[[record]]
residue_codes = "UUCAAGCAAUAUUACGCACC"
answer_label = "Yes"

[[record]]
residue_codes = "GGUAAGCAAUAUUACGUGGG"
answer_label = "No"

[[record]]
residue_codes = "AGGGAGCAAUAUUACGCGCG"
answer_label = "Yes"

[[record]]
residue_codes = "CCGGAGCAAUAUUACGGGCU"
answer_label = "No"


**Query** Is self-splicing fitness (ln) at least -2? Consider CCGUAGCAAUAUUACGUCAG
**Result** Yes

**Query** Is self-splicing fitness (ln) at least -2? Consider UAAAAGCAAUAUUACGUUAG
**Result** Yes
